target: human S1P1 receptor (Homo sapiens); construct: membranes from cells stably expressing the S1P1 receptor; experiment: GTP γ35S binding assay for S1P1 activity; settings: Activity potency: S1P1 receptor from GTP γ35S; membranes of cells stably expressing the S1P1 receptor; agonist-induced binding
Sequence (P21453 whole entry): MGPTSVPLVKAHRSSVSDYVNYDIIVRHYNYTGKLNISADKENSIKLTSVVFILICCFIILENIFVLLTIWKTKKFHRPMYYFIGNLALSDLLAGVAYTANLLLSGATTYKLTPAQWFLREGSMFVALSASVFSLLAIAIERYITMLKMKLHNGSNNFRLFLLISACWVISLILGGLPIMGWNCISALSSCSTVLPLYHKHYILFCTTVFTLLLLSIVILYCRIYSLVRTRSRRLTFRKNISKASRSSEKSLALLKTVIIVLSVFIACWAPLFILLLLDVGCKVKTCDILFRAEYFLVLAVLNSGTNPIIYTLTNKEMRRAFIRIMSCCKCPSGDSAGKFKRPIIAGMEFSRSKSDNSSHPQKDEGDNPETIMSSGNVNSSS
metricName: EC50 (nM)

P. O=C(O)CCNCc1ccc(CC/N=c2\scc(-c3ccccc3)n2-c2ccccc2)cc1
Q. O=P(O)(O)CCCNCc1ccc(CCSc2ncc(-c3ccccc3)n2-c2ccccc2)cc1
R. O=P(O)(O)CCCNCc1ccc(CC/N=c2\scc(-c3ccccc3)n2-c2ccccc2)cc1
Rank by EC50 (largest to smallest). Please, when replying, give the labels in the order that was requested. P, Q, R

The reported numbers originate from patent US20140235585A1.
